Value source: ChEMBL document CHEMBL5518181

Assay: Cytotoxicity against human HepG2 cells incubated for 40 hrs by celltiter-glo luminescent cell viability assay
Assay type: toxicity, cell-based
Measured property: IC50 at 40 h

Some molecules with recorded IC50 at 40 h:
[
  {
    "Molecule": "CC[C@H](C)[C@@H](NC(=O)[C@@H](NC(=O)[C@H](CCC(=O)O)NC(=O)[C@H](Cc1ccccc1)NC(=O)[C@@H](CCN)NC(=O)[C@H](C)NC(=O)[C@H](CO)NC(=O)[C@@H](Cc1c[nH]c2ccccc12)NC(=O)[C@@H](CO)NC(=O)CNC(=O)[C@@H](CCN)NC(=O)[C@H](N)C(C)C)C(C)C)C(=O)N[C@@H](C)C(=O)O",
    "IC50 at 40 h": "126 µg/mL"
  },
  {
    "Molecule": "CC[C@H](C)[C@@H](NC(=O)[C@@H](NC(=O)[C@H](CCC(=O)O)NC(=O)[C@H](Cc1ccccc1)NC(=O)[C@@H](CCN)NC(=O)[C@H](CCN)NC(=O)[C@H](CO)NC(=O)[C@@H](Cc1c[nH]c2ccccc12)NC(=O)[C@@H](CC(=O)O)NC(=O)CNC(=O)[C@@H](CCN)NC(=O)[C@H](N)C(C)C)C(C)C)C(=O)N[C@@H](C)C(=O)O",
    "IC50 at 40 h": "> 170 µg/mL"
  },
  {
    "Molecule": "CC[C@H](C)[C@@H](NC(=O)[C@@H](NC(=O)[C@H](CCC(=O)O)NC(=O)[C@H](Cc1ccccc1)NC(=O)[C@@H](CCN)NC(=O)[C@H](CCN)NC(=O)[C@H](CO)NC(=O)[C@@H](Cc1c[nH]c2ccccc12)NC(=O)[C@@H](CO)NC(=O)CNC(=O)[C@@H](CCN)NC(=O)[C@H](N)C(C)C)C(C)C)C(=O)O",
    "IC50 at 40 h": "> 170 µg/mL"
  },
  {
    "Molecule": "CC(C)[C@H](NC(=O)[C@H](CCC(=O)O)NC(=O)[C@H](Cc1ccccc1)NC(=O)[C@@H](CCN)NC(=O)[C@H](CCN)NC(=O)[C@H](CO)NC(=O)[C@@H](Cc1c[nH]c2ccccc12)NC(=O)[C@@H](CO)NC(=O)CNC(=O)[C@@H](CCN)NC(=O)[C@H](N)C(C)C)C(=O)N[C@H](C)C(=O)N[C@@H](C)C(=O)O",
    "IC50 at 40 h": "> 170 µg/mL"
  },
  {
    "Molecule": "CC[C@H](C)[C@@H](NC(=O)[C@@H](NC(=O)[C@H](CCC(=O)O)NC(=O)[C@H](Cc1ccc(-c2ccccc2)cc1)NC(=O)[C@@H](CCN)NC(=O)[C@H](CCN)NC(=O)[C@H](CO)NC(=O)[C@@H](Cc1c[nH]c2ccccc12)NC(=O)[C@@H](CO)NC(=O)CNC(=O)[C@@H](CCN)NC(=O)[C@H](N)C(C)C)C(C)C)C(=O)N[C@@H](C)C(=O)O",
    "IC50 at 40 h": "23 µg/mL"
  }
]

Next up:
Task: Specify reported IC50 at 40 h for the molecule shown: CC[C@H](C)[C@@H](NC(=O)[C@@H](NC(=O)[C@H](CCC(N)=O)NC(=O)[C@H](Cc1ccccc1)NC(=O)[C@@H](CCN)NC(=O)[C@H](CCN)NC(=O)[C@H](CO)NC(=O)[C@@H](Cc1c[nH]c2ccccc12)NC(=O)[C@@H](CO)NC(=O)CNC(=O)[C@@H](CCN)NC(=O)[C@H](N)C(C)C)C(C)C)C(=O)N[C@@H](C)C(=O)O
Result: 41 µg/mL
